Here's a batch of compounds along with measured IC50 for UniProt:P49768.
Unit nM implied. Number only.

Looking up CC(NC(=O)Cc1cc(F)cc(F)c1)C(=O)NC1N=C(c2ccccc2)c2ccccc2N(C)C1=O (centres unmarked) , I found its IC50 recorded as 0.78

Looking up CC(C)C[C@H](NC(=O)[C@H](Cc1ccccc1)C[C@@H](O)[C@H](Cc1ccccc1)NC(=O)OC(C)(C)C)C(=O)N[C@@H](Cc1ccccc1)C(N)=O , I found its IC50 recorded as 0.5

====

Kindly state pIC50 for each of the entries shown.
systemTested: E280A PS1 γ-secretase (Homo sapiens, UniProt P49768, E280A)
Construct: total membrane
testDetails: In vitro N1-Sb1 γ-secretase assay, membrane of N2a cells expressing E280A PS1
conditionContext: E280A PS1; read-out: IC50 of γ-secretase inhibition (N1-Sb1 cleavage)
Scale: negative log10 of molar concentration, which is what pIC50 denotes.

Looking up CC(C)C[C@H](NC(=O)[C@H](Cc1ccccc1)C[C@@H](O)[C@H](Cc1ccccc1)NC(=O)OC(C)(C)C)C(=O)N[C@@H](Cc1ccccc1)C(N)=O , I found its pIC50 recorded as 9.34

Looking up CC(NC(=O)Cc1cc(F)cc(F)c1)C(=O)NC1N=C(c2ccccc2)c2ccccc2N(C)C1=O (centres unmarked) , I found its pIC50 recorded as 9.15
